# reported half-life; entries follow
# Protocol summary: Terminal half life in Sprague-Dawley rat at 30 mg/kg, po
# Assay type: ADME, organism-based
# Set-up: dose 30 mg/kg, route oral
# Protocol conditions: in vivo, read-out: beta t1/2 (converted)
Answer with a number only, understood to be in h.

CCCCc1nc(Cl)c(CO)n1Cc1ccc(-c2ccccc2-c2nn[nH]n2)cc1 [LOSARTAN]    3

I have this compound here, CCc1nc2c(C)cc(C)nc2n1Cc1ccc(-c2c(-c3nn[nH]n3)cnc3ccccc23)cc1 , and I need its recorded half-life. 1

====

# Protocol summary: Cmax in Sprague-Dawley rat at 30 mg/kg, po
# Assay type: ADME, organism-based
# Set-up: dose 30 mg/kg, route oral
# Protocol conditions: in vivo
Cmax values by entry
Write the number in ng/mL without appending the unit.

CCCCc1nc(Cl)c(CO)n1Cc1ccc(-c2ccccc2-c2nn[nH]n2)cc1    27500

Now for another entry.
Dear colleague, I am looking for the recorded Cmax of the following compound: CCc1nc2c(C)cc(C)nc2n1Cc1ccc(-c2c(-c3nn[nH]n3)cnc3ccccc23)cc1 4200

====

Recorded half-life for the following compounds
# Protocol summary: Terminal half life in Sprague-Dawley rat at 3 mg/kg, iv
# Type: ADME, organism-based
# Set-up: dose 3 mg/kg, route intravenous
# Protocol conditions: in vivo, read-out: beta t1/2 (converted)
Use min as the unit, but write only the number.

Field: example entries. Status: answers known.
CCCc1nc2c(C)cc(C)nc2n1Cc1ccc(-c2c(C(=O)O)c(N)nc3ccccc23)cc1    16.8
CCc1nc2c(C)cc(C)nc2n1Cc1ccc(-c2c(-c3nn[nH]n3)cnc3ccccc23)cc1    40.8
CCc1nc2c(C)cc(C)nc2n1Cc1ccc(-c2c(C(=O)O)n(C)c(=O)c3ccccc23)cc1    13.2
CCCc1nc2c(C)cc(C)nc2n1Cc1ccc(-c2c(C(=O)O)c(C)nc3ccccc23)cc1    19.8
CCCCc1nc(Cl)c(CO)n1Cc1ccc(-c2ccccc2-c2nn[nH]n2)cc1    282

Then this compound:
Which half-life value is on record for CCCc1nc2c(C)cc(C)nc2n1Cc1ccc(-c2c(C(=O)O)c(Cl)nc3ccccc23)cc1 ? 18

====

# Protocol summary: AUC in Sprague-Dawley rat at 3 mg/kg, iv
# Type: ADME, organism-based
# Parameters: dose 3 mg/kg, route intravenous
# Protocol conditions: plasma
Here, each record is paired with measured AUC data.

Please review the entries below; each comes with its answer.
CCCc1nc2c(C)cc(C)nc2n1Cc1ccc(-c2c(C(=O)O)c(N)nc3ccccc23)cc1    520 ng·h/mL
CCc1nc2c(C)cc(C)nc2n1Cc1ccc(-c2c(-c3nn[nH]n3)cnc3ccccc23)cc1    890 ng·h/mL
CCCc1nc2c(C)cc(C)nc2n1Cc1ccc(-c2c(C(=O)O)c(C)nc3ccccc23)cc1    500 ng·h/mL
CCc1nc2c(C)cc(C)nc2n1Cc1ccc(-c2c(C(=O)O)n(C)c(=O)c3ccccc23)cc1    630 ng·h/mL
CCCc1nc2c(C)cc(C)nc2n1Cc1ccc(-c2c(C(=O)O)c(Cl)nc3ccccc23)cc1    340 ng·h/mL

Okay, now this molecule:
I have this molecule here, CCCCc1nc(Cl)c(CO)n1Cc1ccc(-c2ccccc2-c2nn[nH]n2)cc1 , and I need its recorded AUC. 12400 ng·h/mL

====

# Test system: Angiotensin II receptor (AT-1) type-1 (Rattus norvegicus, UniProt P29089+P25095)
# Protocol summary: Displacement of [125I]Sar1,Ile8-Ang2 from AT1 receptor in rat hepatic membrane
# Assay type: cell membranes, Liver
Entries and their IC50
Number in nM, nothing else.

CCCc1nc2c(C)cc(C)nc2n1Cc1ccc(C2=C(C(=O)O)C(O)(CC)c3ccccc32)cc1 (stereo not drawn)    15
CCc1nc2c(C)cc(C)nc2n1Cc1ccc(-c2c(C(=O)O)n(C)c(=O)c3ccccc23)cc1    5.2

Please look up its IC50: CCCc1nc2c(C)cc(C)nc2n1Cc1ccc(C2=C(C(=O)O)C(C)(O)c3ccccc32)cc1 (stereo not drawn) 11

====

List of AUC values.
# Protocol summary: AUC in Sprague-Dawley rat at 30 mg/kg, po
# Assay type: ADME, organism-based
# Set-up: dose 30 mg/kg, route oral
# Protocol conditions: plasma
Kindly provide the numeric value in ng·h/mL only, without the unit symbol.

CCc1nc2c(C)cc(C)nc2n1Cc1ccc(-c2c(-c3nn[nH]n3)cnc3ccccc23)cc1    4400

Next molecule, please.
Which AUC is reported for this molecule? CCCCc1nc(Cl)c(CO)n1Cc1ccc(-c2ccccc2-c2nn[nH]n2)cc1 [LOSARTAN] 74800

====

# Test system: Type-1 angiotensin II receptor (Oryctolagus cuniculus, UniProt P34976)
# Sequence (P34976 whole entry): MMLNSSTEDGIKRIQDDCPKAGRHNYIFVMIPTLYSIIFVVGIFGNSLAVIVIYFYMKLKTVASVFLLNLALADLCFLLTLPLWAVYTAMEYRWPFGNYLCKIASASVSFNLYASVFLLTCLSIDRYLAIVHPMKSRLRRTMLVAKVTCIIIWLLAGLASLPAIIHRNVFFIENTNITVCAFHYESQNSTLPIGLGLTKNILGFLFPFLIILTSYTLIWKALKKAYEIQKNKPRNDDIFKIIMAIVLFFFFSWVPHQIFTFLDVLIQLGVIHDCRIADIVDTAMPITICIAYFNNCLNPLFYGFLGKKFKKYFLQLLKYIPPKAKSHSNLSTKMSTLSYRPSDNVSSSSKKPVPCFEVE
# Protocol summary: Antagonist activity against AT1 receptor assessed as inhibition of Ang2-induced rabbit aortic strip contraction
# Assay type: functional
Measured pIC50, listed per entry.
For clarity, pIC50 is expressed as the negative log10 of concentration in mol/L.

# annotated cases, reported pIC50 shown
CCc1nc2c(C)cc(C)nc2n1Cc1ccc(-c2c(-c3nn[nH]n3)cnc3ccccc23)cc1    8.05
CCCc1nc2c(C)cc(C)nc2n1Cc1ccc(C2=C(C(=O)O)C(C)(O)c3ccccc32)cc1 (stereo not given)    7.48
CCCc1nc2c(C)cc(C)nc2n1Cc1ccc(-c2c(C(=O)O)c(N)nc3ccccc23)cc1    8.48
CCc1nc2c(C)cc(C)nc2n1Cc1ccc(-c2c(C(=O)O)n(C)c(=O)c3ccccc23)cc1    8.34

--- query ---
# pIC50 lookup, item CCCc1nc2c(C)cc(C)nc2n1Cc1ccc(-c2c(C(=O)O)c(C)nc3ccccc23)cc1 7.89

====

Entries annotated with measured bioavailability
# Protocol summary: Oral bioavailability in Sprague-Dawley rat at 30 mg/kg, po
# Assay type: ADME, organism-based
# Protocol conditions: in vivo
# output: bare number, implied unit %

I have this compound here, CCCCc1nc(Cl)c(CO)n1Cc1ccc(-c2ccccc2-c2nn[nH]n2)cc1 , and I need its recorded bioavailability. 60

# bioavailability lookup, item CCc1nc2c(C)cc(C)nc2n1Cc1ccc(-c2c(-c3nn[nH]n3)cnc3ccccc23)cc1 49

====

# Test system: Angiotensin II receptor (AT-1) type-1 (Rattus norvegicus, UniProt P29089+P25095)
# Protocol summary: Displacement of [125I]Sar1,Ile8-Ang2 from AT1 receptor in rat hepatic membrane
# Type: cell membranes, Liver
Class definitions on IC50: bottom range = under 8 nM, center range = from 8 nM up to 60 nM, top range = 60 nM and over

Completed entries (count: 8):
CCCc1nc2c(C)cc(C)nc2n1Cc1ccc(-c2c(C(=O)O)c(N)nc3ccccc23)cc1    bottom range
CCCc1nc2c(C)cc(C)nc2n1Cc1ccc(C2=C(C(=O)NS(C)(=O)=O)C(=O)c3ccccc32)cc1    center range
CCCc1nc2c(C)cc(C)nc2n1Cc1ccc(C2=C(C(=O)O)C(C)c3ccccc32)cc1 (configuration not stated)    top range
CCCc1nc2c(C)cc(C)nc2n1Cc1ccc(C2=C(C(=O)NS(=O)(=O)c3ccccc3)C(=O)c3ccccc32)cc1    top range
CCCc1nc2c(C)cc(C)nc2n1Cc1ccc(C2(C(C(=O)O)C(=O)O)CC(=O)c3ccccc32)cc1 (configuration not stated)    center range
CCCCc1nc2c(C)cc(C)nc2n1Cc1ccc(-c2c(C(=O)O)n(C)c(=O)c3ccccc23)cc1    bottom range
CCc1nc2c(C)cc(C)nc2n1Cc1ccc(C2=C(C(=O)O)C(=O)c3ccccc32)cc1    center range
CCCCc1nc2c(C)cc(C)nc2n1Cc1ccc(-c2c(-c3nn[nH]n3)n(C)c(=O)c3ccccc23)cc1    top range

Band assignment needed for CCCc1nc2c(C)cc(C)nc2n1Cc1ccc(-c2c(C(=O)O)c(C)nc3ccccc23)cc1 please. center range

Which IC50 category applies to CCc1nc2c(C)cc(C)nc2n1Cc1ccc(-c2c(-c3nn[nH]n3)cnc3ccccc23)cc1 here? bottom range

State the band of CCc1nc2c(C)cc(C)nc2n1Cc1ccc(-c2c(-c3nn[nH]n3)n(C)c(=O)c3ccccc23)cc1 top range

Form: Item = CCCc1nc2c(C)cc(C)nc2n1Cc1ccc(C2C(C(=O)O)=C(C)c3ccccc32)cc1 (configuration not stated) ; Class = ? center range

====

Reported Papp A→B values follow for various compounds
# Protocol summary: Apparent permeability from apical to basolateral side of Caco-2 cell
# Format: ADME, cell-based
# Protocol conditions: human

CCc1nc2c(C)cc(C)nc2n1Cc1ccc(-c2c(-c3nn[nH]n3)cnc3ccccc23)cc1    0.1 ×10⁻⁶ cm/s

Given the compound CCCCc1nc2c(C)cc(C)nc2n1Cc1ccc(-c2c(C(=O)O)n(C)c(=O)c3ccccc23)cc1 , what is its reported Papp A→B? 0.01 ×10⁻⁶ cm/s

Fill blank: measured Papp A→B of the compound CCc1nc2c(C)cc(C)nc2n1Cc1ccc(-c2c(C(=O)O)n(C)c(=O)c3ccccc23)cc1 is ____. 0.03 ×10⁻⁶ cm/s

Please report the recorded Papp A→B for CCCCc1nc(Cl)c(CO)n1Cc1ccc(-c2ccccc2-c2nn[nH]n2)cc1 . 1.15 ×10⁻⁶ cm/s

These data points were gathered from ChEMBL document CHEMBL1137307.
